read-out: NAD(P)H dehydrogenase [quinone] 1 (NQO1), NQO1 (gene 1728); experiment: LTEA_HepaRG_NQO1: Life Technologies and Expression Analysis (LTEA) Assay for NAD(P)H dehydrogenase [quinone] 1 (NQO1) using HepaRG (AID 2283526); details: mRNA level, 48 h; actives raise or lower the signal
Calls of active or inactive are those of the source. The calls were made as follows: active = hit-call score of the fitted dose curve at least 0.9, where 1 is the maximum; inactive = score below 0.9.
quantity: outcome

- O=C(O)C1(c2ccc3c(c2)OC[C@H](Cc2ccc(-c4ccccc4)cc2)[C@H]3O)CCCC1: inactive
- Clc1cccc(Cl)c1: inactive
- CC(C)(C)c1ccccc1O: inactive
- CCCCCCCCCCCCc1cccc(S(=O)(=O)O)c1: inactive

----------
experiment: IUF_NPC4_neurite_area_120hr: Leibniz Research Institute for Environmental Medicine (IUF) 120-hour Neuronal Morphology Assay for Neurite Area (NPC4) (AID 2284305)
Records with an inconclusive call do not appear. The source made the active and inactive calls. Rule for the calls: active = hit-call score of the fitted dose curve at least 0.9, where 1 is the maximum; inconclusive = response in the unintended direction; inactive = score below 0.9.
Permitted responses: 1 for active, -1 for inactive

* OC(Cc1ccccc1Cl)(Cn1[nH]cnc1=S)C1(Cl)CC1 (stereo not given) | 1
* Cc1ccccc1OP(=O)(Oc1ccccc1C)Oc1ccccc1C | -1
* CCOCn1c(-c2ccc(Cl)cc2)c(C#N)c(Br)c1C(F)(F)F | 1
* Cc1cc(C(F)(C(F)(F)F)C(F)(F)F)ccc1NC(=O)c1cccc(I)c1C(=O)NC(C)(C)CS(C)(=O)=O | -1

Record lookup: outcome of this test for CC(C)[C@@H](Nc1ccc(C(F)(F)F)cc1Cl)C(=O)OC(C#N)c1cccc(Oc2ccccc2)c1 (stereo not given in full) ?
-1

----------
read-out: Intercellular Adhesion Molecule 1 (ICAM1), ICAM1 (gene 3383); assay: BSK_3C_ICAM1: BioMAP Diversity Plus: 3C Assay for Intercellular Adhesion Molecule 1 (ICAM1) Biomarker Activity (AID 2283003); details: primary human endothelial cells (HUVEC); actives raise or lower the signal
The source made the active and inactive calls. The calls were made as follows: active = hit-call score of the fitted dose curve at least 0.9, where 1 is the maximum; inactive = score below 0.9.
quantity: outcome

• O=[N+]([O-])c1cccc2ccccc12 = inactive
• O=C(CCl)NCO = inactive
• CC(C)(C)c1cc([N+](=O)[O-])cc(C(C)(C)C)c1O = inactive
• Nc1ccc(N)cc1 = inactive
• O=C(N[C@H]1CN2CCC1CC2)c1ccc2c(c1)OCCO2 = inactive
• Cc1ccc(OP(=O)(Oc2ccc(C)cc2C)Oc2ccc(C)cc2C)c(C)c1 = inactive
• CC(C)(C)c1ccccc1O = inactive
• O=C(Cc1ccccc1)OCCc1ccccc1 = inactive

Next:
Dear colleague, please send me the reported outcome for Cc1cc(Cl)ccc1N when you can.
inactive

----------
read-out: Secreted IgG (sIgG), gene 3500; assay: BSK_BT_sIgG: BioMAP Diversity Plus: BT Assay for Secreted IgG (sIgG) Biomarker Activity (AID 2284226); details: primary human B cells with PBMC
Calls of active or inactive are those of the source. The calls were made as follows: active = hit-call score of the fitted dose curve at least 0.9, where 1 is the maximum; inactive = score below 0.9.
Permitted responses: active, inactive

# example entries with known answers
- O=[N+]([O-])c1cccc2ccccc12: inactive
- O=C(O)COc1cc(Cl)c(Cl)cc1Cl: inactive
- Cc1cc(Cl)ccc1N: inactive
- Cc1c([N+](=O)[O-])c(C)c([N+](=O)[O-])c(C(C)(C)C)c1[N+](=O)[O-]: inactive
- Cc1cc(C(C)(C)c2ccc(O)c(C)c2)ccc1O: active
- Cc1cc(Cl)ccc1OC(C)C(=O)O (stereo unspecified): inactive
- O=S(=O)(c1ccc(Cl)cc1)c1cc(Cl)c(Cl)cc1Cl: active
- OC(Cc1ccccc1Cl)(Cn1[nH]cnc1=S)C1(Cl)CC1 (stereo unspecified): active
- CCN(CC)C(=O)C(Cl)=C(C)OP(=O)(OC)OC: inactive
- Oc1cccc(-c2ccccc2)c1: inactive

Record lookup: outcome of this test for CCOC(=O)CCN(SN(C)C(=O)Oc1cccc2c1OC(C)(C)C2)C(C)C ?
active

Record lookup: outcome of this test for CCOC(=O)CC(=O)CCl ?
active

Record lookup: outcome of this test for CC(C)=CC1C(C(=O)OCc2cccc(Oc3ccccc3)c2)C1(C)C (stereo unspecified) ?
active

Record lookup: outcome of this test for c1ccc(-c2cccc(-c3ccccc3)c2)cc1 ?
active

Record lookup: outcome of this test for CCC(C)(C#N)N=NC(C)(C#N)CC (stereo unspecified) ?
inactive

Record lookup: outcome of this test for NC(=O)CCl ?
inactive

Record lookup: outcome of this test for O=C1C=CC(=O)c2ccccc21 ?
active

Record lookup: outcome of this test for CCOP(=O)(OCC)SCCSCC ?
inactive
